# assay.comment: Drug repurposing screens with cells derived from glioblastoma tumor samples (AID 1345199); also: % is scaled to controls: 0 for no effect and ±100 for the full control effect; nearly all actives have a fitted effect of over 40% in size
# particulars: GBM patient neurospheres viability, ATP luminescence, 48 h; at 99.2 µM (top of the series); tumour line C
Inconclusive results are not listed.
Provide the recorded activity, negative = cell killing for the entries that follow.
Please state the figure in %; there is no need to write the unit.

In: Fill blank: measured activity, negative = cell killing of the molecule CCCCC(CC)COC(=O)c1ccccc1C(=O)O (stereo unspecified) is ____.
Out: -7.68

In: Fill blank: measured activity, negative = cell killing of the molecule CC(C)(c1ccc(O)cc1)c1ccc(O)cc1 is ____.
Out: -43.4

In: Fill blank: measured activity, negative = cell killing of the molecule COC(=O)c1c(Cl)c(Cl)c(C(=O)OC)c(Cl)c1Cl is ____.
Out: -5.72

In: Fill blank: measured activity, negative = cell killing of the molecule CCCC(=O)c1cc(O)c(O)cc1O is ____.
Out: -23.6

In: Fill blank: measured activity, negative = cell killing of the molecule c1ccc2occc2c1 is ____.
Out: 4.01

In: Fill blank: measured activity, negative = cell killing of the molecule O=C(Oc1ccccc1)c1cccc(C(=O)Oc2ccccc2)c1 is ____.
Out: 1.54

---

# System: KB-3-1
# assay.comment: Cytotoxic Profiling of Annotated Libraries Using Quantitative High-Throughput Screening (AID 1296008); also: % is scaled to controls: 0 for no effect and ±100 for the full control effect; nearly all actives have a fitted effect of over 60% in size
# particulars: Five cell lines viability, CellTiter-Glo ATP luminescence, 48-72 h; stronger effect = lower value
Inconclusive results are not listed. Active and inactive are the calls of the source. Calls follow the shape of the dose curve; as a rule, active = well fitted inhibition curve with a large enough effect; inconclusive = small, poorly fitted or top-dose-only effect; inactive = flat fitted curve, though single readings scatter.
measure.name: max response

In: Fill blank: measured max response of the compound COC(=O)c1c(Cl)c(Cl)c(C(=O)OC)c(Cl)c1Cl is ____.
Out: -7.26% (inactive)

In: Fill blank: measured max response of the compound O=[N+]([O-])c1nccn1CO[C@@H](CO)[C@H](O)CO is ____.
Out: 2.05% (inactive)

In: Fill blank: measured max response of the compound Oc1ccc(CCNCCCCCCNCCc2ccccc2)cc1O is ____.
Out: -20.6% (inactive)

In: Fill blank: measured max response of the compound O=C(Nc1ccc(S(=O)(=O)N2CCOCC2)cc1)c1cc(Cl)ccc1NS(=O)(=O)c1ccc(Cl)s1 is ____.
Out: -23.1% (inactive)

In: Fill blank: measured max response of the compound CCOC(=O)NNc1nncc2ccccc12 is ____.
Out: -9.29% (inactive)

In: Fill blank: measured max response of the compound CC(C)(C)c1nnc(NS(=O)(=O)c2ccccc2)s1 is ____.
Out: 3.82% (inactive)

In: Fill blank: measured max response of the compound C=CCOc1cc(Cl)ccc1C(=O)NCCN(CC)CC is ____.
Out: 6.3% (inactive)

In: Fill blank: measured max response of the compound CN(C)CCOC1=Cc2ccccc2Sc2ccc(Cl)cc21 is ____.
Out: -15.8% (inactive)

In: Fill blank: measured max response of the compound CCOC(=O)[C@H](CCc1ccccc1)N[C@@H](C)C(=O)N(CC(=O)O)C1Cc2ccccc2C1 is ____.
Out: -12.3% (inactive)

In: Fill blank: measured max response of the compound CCCCC/C=C\C/C=C\CCCCCCCC(=O)NC(C)c1ccccc1 (stereo unspecified) is ____.
Out: -8.18% (inactive)

In: Fill blank: measured max response of the compound CC(=O)CC/C=C(\C)CC/C=C(\C)CC/C=C(\C)CCC=C(C)C is ____.
Out: -13.4% (inactive)

---

# assay.comment: qHTS drug screen for cell cycle checkpoint inhibitors in PARPi-resistant BRCA-mutant ovarian cancer cell lines. (AID 1963452)
# particulars: PEO1/OlaR viability, CellTiter-Glo luminescence, 96 h; stronger effect = lower value
measure.name: Z-AUC
Lab note: record the figure alone, no unit after it.

In: Fill blank: measured Z-AUC of the molecule O=C1NC(=O)/C(=C/c2ccc3c(c2)OC(F)(F)O3)S1 is ____.
Out: -0.958

In: Fill blank: measured Z-AUC of the molecule O=[N+]([O-])c1ccc(-c2nc(-c3ccc(F)cc3)c(-c3ccncc3)[nH]2)cc1 is ____.
Out: 1.31

In: Fill blank: measured Z-AUC of the molecule CCCCCCOC(=O)NC(=N)c1ccc(NCc2nc3cc(C(=O)N(CCC(=O)OCC)c4ccccn4)ccc3n2C)cc1 is ____.
Out: 1.19

In: Fill blank: measured Z-AUC of the molecule CCOC(=O)O[C@]1(C(=O)OCCl)CC[C@H]2[C@@H]3CCC4=CC(=O)C=C[C@]4(C)[C@H]3[C@@H](O)C[C@@]21C is ____.
Out: 1.04

In: Fill blank: measured Z-AUC of the molecule CN1CCCN=C1/C=C/c1cccs1 is ____.
Out: 0.33

In: Fill blank: measured Z-AUC of the molecule O=C(Nc1ccc(S(=O)(=O)N2CCOCC2)cc1)c1cc(Cl)ccc1NS(=O)(=O)c1ccc(Cl)s1 is ____.
Out: 1.19

In: Fill blank: measured Z-AUC of the molecule CN1CC(=O)N2[C@H](c3ccc4c(c3)OCO4)c3[nH]c4ccccc4c3C[C@@H]2C1=O is ____.
Out: 0.983

---

# target.or.test.system: Cytochrome P450 2D6 (Homo sapiens) (UniProt P10635)
# Sequence (P10635 whole entry, looked up): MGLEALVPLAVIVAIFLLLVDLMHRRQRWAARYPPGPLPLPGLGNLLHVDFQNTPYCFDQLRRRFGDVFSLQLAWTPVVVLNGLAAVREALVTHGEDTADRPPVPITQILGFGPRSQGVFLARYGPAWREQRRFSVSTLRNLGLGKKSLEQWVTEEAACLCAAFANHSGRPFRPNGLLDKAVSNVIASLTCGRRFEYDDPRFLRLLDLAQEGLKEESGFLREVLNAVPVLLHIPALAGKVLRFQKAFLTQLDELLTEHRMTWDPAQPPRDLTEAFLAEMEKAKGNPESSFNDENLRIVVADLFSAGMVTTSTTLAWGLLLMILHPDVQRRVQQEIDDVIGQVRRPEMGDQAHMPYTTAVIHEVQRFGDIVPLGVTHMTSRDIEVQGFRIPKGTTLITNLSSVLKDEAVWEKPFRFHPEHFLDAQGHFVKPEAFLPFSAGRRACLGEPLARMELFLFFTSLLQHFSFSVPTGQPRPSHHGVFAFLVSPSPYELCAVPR
# assay.comment: Cytochrome P450 family 2 subfamily D member 6 (CYP2D6) small molecule antagonists: luciferase biochemical (cell-free) qHTS assay (AID 1645840); also: nearly all actives have a fitted effect of over 55% in size
# particulars: P450-Glo CYP2D6 enzyme, luciferin luminescence, 1 h; series mostly up to 57.4 µM
Records with an inconclusive call do not appear. Active and inactive are the calls of the source. Calls follow the shape of the dose curve; as a rule, active = well fitted inhibition curve with a large enough effect in the repeat runs; inconclusive = weak or mixed curves; inactive = flat fitted curve, though single readings scatter.
Parameter call: string, one of 1 (yes) (active), 0 (no) (inactive)

In: Check the results log: what was the call for CO[C@@]1(NC(=O)CSC[C@@H](N)C(=O)O)C(=O)N2C(C(=O)O)=C(CSc3nnnn3C)CS[C@@H]21 ?
Out: 0 (no)

In: Check the results log: what was the call for Cc1cc(OCCOCC[N+](C)(C)Cc2ccccc2)ccc1C(C)(C)CC(C)(C)C ?
Out: 1 (yes)

In: Check the results log: what was the call for COC(=O)c1cc(Cl)ccc1OC ?
Out: 0 (no)

In: Check the results log: what was the call for COC(=O)c1cc(Cl)c(NC(C)=O)cc1OC ?
Out: 0 (no)

In: Check the results log: what was the call for CCCc1c2oc(C(=O)O)cc(=O)c2cc2c(=O)cc(C(=O)O)n(CC)c12 ?
Out: 0 (no)

In: Check the results log: what was the call for C[C@]12CCC(=O)C=C1CC[C@@H]1[C@@H]2[C@@H](O)C[C@@]2(C)[C@H]1CC[C@]2(O)C(=O)COC(=O)CCC(=O)O ?
Out: 0 (no)

In: Check the results log: what was the call for CC(=O)Nc1c(I)c(NC(C)=O)c(I)c(C(=O)O)c1I ?
Out: 0 (no)

In: Check the results log: what was the call for COCCc1ccc(OCC2CO2)cc1 (stereo not given) ?
Out: 0 (no)

In: Check the results log: what was the call for CN(C)CCOC1=Cc2ccccc2Sc2ccc(Cl)cc21 ?
Out: 1 (yes)

In: Check the results log: what was the call for CCCCC/C=C\C/C=C\CCCCCCCC(=O)NC(C)c1ccccc1 (stereo not given) ?
Out: 1 (yes)

---

# Test system: HEK293
# assay.comment: Cytotoxic Profiling of Annotated Libraries Using Quantitative High-Throughput Screening (AID 1296008); also: % is scaled to controls: 0 for no effect and ±100 for the full control effect; nearly all actives have a fitted effect of over 60% in size
# particulars: Five cell lines viability, CellTiter-Glo ATP luminescence, 48-72 h; stronger effect = lower value
Results filed as inconclusive are left out.
measure.name: max response (%)
Please state the figure in %; there is no need to write the unit.

In: Fill blank: measured max response of the compound Cc1ncc(CO)c(CO)c1O is ____.
Out: 4.28

In: Fill blank: measured max response of the compound CCOC(=O)C(=O)c1csc(NC=O)n1 is ____.
Out: 3.1

In: Fill blank: measured max response of the compound OCCOCCN1CCN(C(c2ccccc2)c2ccc(Cl)cc2)CC1 (configuration not stated) is ____.
Out: -4.98

In: Fill blank: measured max response of the compound CC(=O)OCC(=O)Nc1cc(C#N)cc(NC(=O)COC(C)=O)c1Cl is ____.
Out: -14.4

In: Fill blank: measured max response of the compound Oc1cccc2[nH]ccc12 is ____.
Out: 2.46

In: Fill blank: measured max response of the compound CN(C)CCN(Cc1ccsc1)c1ccccn1 is ____.
Out: -3.25

In: Fill blank: measured max response of the compound CCCCC(O)/C=C(C)/C=C/C=C/C(=O)N1CCCC1=O (configuration not stated) is ____.
Out: 1.86

In: Fill blank: measured max response of the compound O=C(O)Cc1ccc(OCCNC[C@H](O)c2ccccc2)cc1 is ____.
Out: -3.07

In: Fill blank: measured max response of the compound N#Cc1cc(NC(=O)C(=O)O)c(Cl)c(NC(=O)C(=O)O)c1 is ____.
Out: -3.47

In: Fill blank: measured max response of the compound NS(=O)(=O)c1cc(C(=O)NN2C[C@H]3[C@H]4CCC(C4)[C@H]3C2)ccc1Cl is ____.
Out: 4.38

In: Fill blank: measured max response of the compound CC(C)(C)c1cc(C=O)cc(C(C)(C)C)c1O is ____.
Out: 3.28

In: Fill blank: measured max response of the compound C/C(=N/NC(=O)c1ccncc1)C(=O)O is ____.
Out: 2.14
